Test: inhibition of 3D7 malaria parasite growth – strain 3D7 (AID 2306);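 further: 0% = DMSO wells and 100% = chloroquine plus artemisinin control wells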
Conditions: P. falciparum 3D7 erythrocytic growth, LDH absorbance, 72 h; at 2 µM; stronger effect = higher value
Assignment: determine reported growth inhibition for the given compounds.
Dear colleague, please return just the value in %, with no unit written.

Prompt: Tell me the measured growth inhibition of "CCOc1cc(N)c2nc3ccc([N+](=O)[O-])cc3cc2c1" , please.
Response: 100

Prompt: Tell me the measured growth inhibition of "CC(C)(CNC(=O)C1CCN(CC2CCCCC2)CC1)c1nc(-c2ccc(Cl)c(O)c2)c(-c2ccncc2)[nH]1" , please.
Response: 98

Prompt: Tell me the measured growth inhibition of "Cc1cc(N)c2cc(NC(=O)/C=C/c3ccc([N+](=O)[O-])cc3)ccc2n1" , please.
Response: 100

Prompt: Tell me the measured growth inhibition of "Cc1ccc2c(=O)cc(CCc3cccc(F)c3F)n(CC(=O)N(Cc3ccc(-c4ccc(C(F)(F)F)cc4)cc3)C3CCN(C(C)C)CC3)c2n1" , please.
Response: 100

Prompt: Tell me the measured growth inhibition of "CC(C)C[C@H]1c2[nH]c3ccc(Cl)cc3c2CCN1C(=O)CCc1ccccc1" , please.
Response: 95

Prompt: Tell me the measured growth inhibition of "FC(F)(F)c1ccc2c(C=Cc3ccncc3)c[nH]c2c1" , please.
Response: 98

Prompt: Tell me the measured growth inhibition of "CN1C(=C2SC(=Nc3ccc4ncccc4c3)N(Cc3ccccc3)C2=O)Sc2ccc(Cl)cc21" , please.
Response: 99

Prompt: Tell me the measured growth inhibition of "COc1ccc(NC(=O)[C@H](CC(C)C)Nc2cc(C)nc(NCCc3ccc(F)cc3)n2)cc1" , please.
Response: 100

Prompt: Tell me the measured growth inhibition of O=C(Nc1ccc(F)c(Cl)c1)NC1CCN(c2ccnc3cc(Cl)ccc23)C1 (configuration not stated) , please.
Response: 101

Prompt: Tell me the measured growth inhibition of "COc1ccc(-c2ccc(NC(=O)c3cccc(C#N)c3)cc2)cc1CN1CCCN(C)CC1" , please.
Response: 102

Prompt: Tell me the measured growth inhibition of "CC(C)(C)c1cc(CN2CCN(Cc3ccccc3)CC2)cc(C(C)(C)C)c1O" , please.
Response: 97

Prompt: Tell me the measured growth inhibition of "COc1ccc2ncc(F)c(CCN3CCC(NCc4cnc5c(c4)NC(=O)CS5)CC3)c2c1" , please.
Response: 99

Prompt: Tell me the measured growth inhibition of "Cc1ccc(NC(=O)c2ccc(-c3cc4cc(Cl)c(Cl)cc4[nH]3)cc2)cc1OCCN1CCCC1" , please.
Response: 101

Prompt: Tell me the measured growth inhibition of "O=C(Nc1cc(Cl)cc(Cl)c1)Nc1ccnc2ccccc12" , please.
Response: 96

Prompt: Tell me the measured growth inhibition of "COc1cc(-c2nc(-c3ccccc3)c(-c3ccc(C(=O)c4ccc(F)cc4)cc3)[nH]2)cc(OC)c1O" , please.
Response: 101

Prompt: Tell me the measured growth inhibition of CC(Cc1ccc(CNC(=O)c2ccc(CC(C)NCCc3cccc(Cl)c3)cc2)cc1)NCCc1cccc(Cl)c1 (configuration not stated) , please.
Response: 99

Prompt: Tell me the measured growth inhibition of "COc1ccc(CN(C)CCCOc2ccc(NC(=O)c3cccc4c(=O)c5cccc(F)c5[nH]c34)cc2)cc1OC" , please.
Response: 100

Prompt: Tell me the measured growth inhibition of "Cc1cc(N2CCCC2)nc(Nc2ccc(NC(=O)Nc3ccccc3)cc2)n1" , please.
Response: 99

Prompt: Tell me the measured growth inhibition of "Clc1ccc(Sc2cncnc2N2CCOCC2)cc1" , please.
Response: 95

Prompt: Tell me the measured growth inhibition of "CCCc1c(C(=O)Nc2ccc3c(c2)CCN(C2CCC2)CC3)cnn1-c1ccc(Cl)cc1" , please.
Response: 92

Prompt: Tell me the measured growth inhibition of "COc1ccc(CCN(Cc2cccs2)C(=O)c2cc3sccc3n2C)cc1OC" , please.
Response: 94

Prompt: Tell me the measured growth inhibition of CC(=O)Nc1ccc(C2NC(=O)NC(c3ccccc3)=C2c2nc3ccccc3s2)cc1 (configuration not stated) , please.
Response: 93

Prompt: Tell me the measured growth inhibition of "c1cnc2ccc(NCc3ccc(-c4ccc(CNC5CCCC5)cc4)cc3)cc2c1" , please.
Response: 97

Prompt: Tell me the measured growth inhibition of "CN1CCCN(Cc2ccc(-c3cccc(NC(=O)c4ccc(Cl)cc4)c3)cc2)CC1" , please.
Response: 98

Prompt: Tell me the measured growth inhibition of "CN(C(=O)/C=C/c1ccccc1F)C1CCN(CCCCCNC(=O)/C=C/c2ccc(Cl)c(Cl)c2)CC1" , please.
Response: 89

Prompt: Tell me the measured growth inhibition of "O=c1cc(NCCCNCc2ccc(Cl)c(Cl)c2)[nH]c2ccc(Oc3ccccc3)cc12" , please.
Response: 92

Prompt: Tell me the measured growth inhibition of Cc1cccc2[nH]c(-c3cccc(-c4cccc(CNCC5CCCO5)c4)c3)nc12 (configuration not stated) , please.
Response: 101
